Cited source: patent US20230192890A1

target: T1, full-length recombinant human PAD4 (human, UniProt Q9UM07 1-663); assay: ELISA, human PAD4 on plate, antibody 6.104E-05 ug/mL
T1 construct: also called peptidylarginine deiminase 4
T1 sequence (Q9UM07 whole entry): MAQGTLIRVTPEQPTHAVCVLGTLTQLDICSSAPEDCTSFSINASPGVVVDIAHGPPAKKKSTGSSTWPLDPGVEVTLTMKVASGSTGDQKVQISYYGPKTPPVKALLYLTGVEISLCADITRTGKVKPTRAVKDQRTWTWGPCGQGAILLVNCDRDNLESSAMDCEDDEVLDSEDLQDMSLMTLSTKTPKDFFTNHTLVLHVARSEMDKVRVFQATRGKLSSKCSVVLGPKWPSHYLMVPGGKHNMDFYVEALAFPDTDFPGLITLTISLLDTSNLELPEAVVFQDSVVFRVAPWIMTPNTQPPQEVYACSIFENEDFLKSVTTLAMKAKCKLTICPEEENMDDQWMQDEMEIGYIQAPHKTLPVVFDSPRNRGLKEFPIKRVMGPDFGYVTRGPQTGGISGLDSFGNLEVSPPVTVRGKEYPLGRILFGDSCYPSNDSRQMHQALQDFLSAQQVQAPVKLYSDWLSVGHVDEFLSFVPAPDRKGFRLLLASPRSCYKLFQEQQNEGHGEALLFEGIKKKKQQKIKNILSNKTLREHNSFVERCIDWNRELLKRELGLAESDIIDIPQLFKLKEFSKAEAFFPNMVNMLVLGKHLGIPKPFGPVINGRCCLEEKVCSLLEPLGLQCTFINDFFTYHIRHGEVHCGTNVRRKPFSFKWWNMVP
attribute-measured: absorbance 490 nm/630 nm

Tell me its absorbance 490 nm/630 nm given G6 (antibody, IgG1, V domains shown, Chicken variable regions in mouse chimeric antibody (IgG1) expression vectors; also called anti-PAD4 antibody G6; A11 etc) VH: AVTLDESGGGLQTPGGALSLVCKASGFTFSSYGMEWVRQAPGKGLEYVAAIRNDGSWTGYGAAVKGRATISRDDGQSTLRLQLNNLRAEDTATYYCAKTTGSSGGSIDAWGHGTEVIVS VL: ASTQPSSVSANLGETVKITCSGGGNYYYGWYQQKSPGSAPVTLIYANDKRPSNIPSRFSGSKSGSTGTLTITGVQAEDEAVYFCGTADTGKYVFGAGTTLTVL as the entry.
0.075 OD

Please give measured absorbance 490 nm/630 nm of the following entry: G9 (antibody, IgG1, V domains shown, Chicken variable regions in mouse chimeric antibody (IgG1) expression vectors; also called anti-PAD4 antibody G9; A11 etc) VH: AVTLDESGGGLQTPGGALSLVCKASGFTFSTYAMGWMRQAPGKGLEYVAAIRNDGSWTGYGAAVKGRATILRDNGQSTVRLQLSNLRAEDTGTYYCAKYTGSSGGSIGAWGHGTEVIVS VL: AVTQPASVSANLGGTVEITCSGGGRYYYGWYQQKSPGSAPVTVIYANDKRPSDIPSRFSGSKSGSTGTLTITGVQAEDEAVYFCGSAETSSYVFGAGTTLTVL
0.082 OD

Give me measured absorbance 490 nm/630 nm, please, for this binder: A11 (antibody, IgG1, V domains shown, Chicken variable regions in mouse chimeric antibody (IgG1) expression vectors; also called anti-PAD4 antibody A11; A11 etc) VH: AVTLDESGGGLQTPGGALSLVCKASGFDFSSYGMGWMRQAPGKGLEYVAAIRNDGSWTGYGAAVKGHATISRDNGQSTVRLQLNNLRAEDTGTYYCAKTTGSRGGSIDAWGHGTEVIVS VL: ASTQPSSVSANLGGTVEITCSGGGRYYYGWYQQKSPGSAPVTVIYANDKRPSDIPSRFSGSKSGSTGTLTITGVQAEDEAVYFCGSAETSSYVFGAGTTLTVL
0.063 OD
